Hey, just so you know, these numbers are from the supplement of paper PMC10627819.

system: S. aureus Newman; assay: fitness (endpoint OD595 vs no drug) (fraction); higher = more growth; conditions: first compound 0.125 µg/mL; partner 0.625 µg/mL;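 note: OD595 on entry to stationary phase over no-drug wells; at most 1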
Form field: fitness (one value per entry).
PROPERTY NAME: fitness

{"COMPOUND": "CO/N=C(\\C(=O)N[C@@H]1C(=O)N2C(C(=O)[O-])=C(C[N+]3(C)CCCC3)CS[C@H]12)c1csc(N)n1 [Cefepime] + Cc1ncc([N+](=O)[O-])n1CCO", "PROPERTY NAME": "fitness", "EXPERIMENTAL VALUE": 0.942}
{"COMPOUND": "CC1(C)S[C@@H]2[C@H](NC(=O)[C@H](N)c3ccc(O)cc3)C(=O)N2[C@H]1C(=O)O [Amoxicillin] + COc1cccc2c1C(=O)c1c(O)c3c(c(O)c1C2=O)C[C@@](O)(C(=O)CO)C[C@@H]3O[C@H]1C[C@H](N)[C@H](O)[C@H](C)O1 [Doxorubicin]", "PROPERTY NAME": "fitness", "EXPERIMENTAL VALUE": 0.774}
{"COMPOUND": "CCCCCCCCCC(=O)N[C@@H](Cc1c[nH]c2ccccc12)C(=O)N[C@H](CC(N)=O)C(=O)N[C@@H](CC(=O)O)C(=O)N[C@@H]1C(=O)NCC(=O)N[C@@H](CCCN)C(=O)N[C@@H](CC(=O)O)C(=O)N[C@H](C)C(=O)N[C@@H](CC(=O)O)C(=O)NCC(=O)N[C@H](CO)C(=O)N[C@@H]([C@H](C)CC(=O)O)C(=O)N[C@@H](CC(=O)c2ccccc2N)C(=O)O[C@@H]1C [Daptomycin] + Cc1ncc([N+](=O)[O-])n1CCO", "PROPERTY NAME": "fitness", "EXPERIMENTAL VALUE": 0.935}
{"COMPOUND": "CC1(C)S[C@@H]2[C@H](NC(=O)[C@H](N)c3ccc(O)cc3)C(=O)N2[C@H]1C(=O)O [Amoxicillin] + Cc1ncc([N+](=O)[O-])n1CCO [Metronidazole]", "PROPERTY NAME": "fitness", "EXPERIMENTAL VALUE": 0.839}

* * *

Listed here: items and their measured fitness.
tested on: S. aureus Newman; experiment: fitness (endpoint OD595 vs no drug) (fraction); higher = more growth; conditions: first compound 0.25 µg/mL; partner 0.078 µg/mL;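 note: OD595 on entry to stationary phase over no-drug wells; at most 1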

{"COMPOUND": "CCCCCCCCCC(=O)N[C@@H](Cc1c[nH]c2ccccc12)C(=O)N[C@H](CC(N)=O)C(=O)N[C@@H](CC(=O)O)C(=O)N[C@@H]1C(=O)NCC(=O)N[C@@H](CCCN)C(=O)N[C@@H](CC(=O)O)C(=O)N[C@H](C)C(=O)N[C@@H](CC(=O)O)C(=O)NCC(=O)N[C@H](CO)C(=O)N[C@@H]([C@H](C)CC(=O)O)C(=O)N[C@@H](CC(=O)c2ccccc2N)C(=O)O[C@@H]1C [Daptomycin] + CN(C)c1cc(NC(=O)CNC(C)(C)C)c(O)c2c1C[C@H]1C[C@H]3[C@H](N(C)C)C(O)=C(C(N)=O)C(=O)[C@@]3(O)C(O)=C1C2=O", "fitness": 0.988}
{"COMPOUND": "CC1(C)S[C@@H]2[C@H](NC(=O)[C@H](N)c3ccc(O)cc3)C(=O)N2[C@H]1C(=O)O [Amoxicillin] + CO/N=C(\\C(=O)N[C@@H]1C(=O)N2C(C(=O)O)=C(COC(C)=O)CS[C@H]12)c1csc(N)n1 [Cefotaxime]", "fitness": 0.626}
{"COMPOUND": "CC1(C)S[C@@H]2[C@H](NC(=O)[C@H](N)c3ccc(O)cc3)C(=O)N2[C@H]1C(=O)O [Amoxicillin] + CN(C)c1cc(NC(=O)CNC(C)(C)C)c(O)c2c1C[C@H]1C[C@H]3[C@H](N(C)C)C(O)=C(C(N)=O)C(=O)[C@@]3(O)C(O)=C1C2=O [Tigecycline]", "fitness": 0.867}
